# Measured On: T1, recombinant protein containing hST2 extracellular domain with mouse antibody heavy chain Fc tag (hST2-ECD-mFc) (human)
# T1 construct: Used for SPR and for ELISA of chimeric and humanized antibodies; also called human ST2 antigen
# T1 chain: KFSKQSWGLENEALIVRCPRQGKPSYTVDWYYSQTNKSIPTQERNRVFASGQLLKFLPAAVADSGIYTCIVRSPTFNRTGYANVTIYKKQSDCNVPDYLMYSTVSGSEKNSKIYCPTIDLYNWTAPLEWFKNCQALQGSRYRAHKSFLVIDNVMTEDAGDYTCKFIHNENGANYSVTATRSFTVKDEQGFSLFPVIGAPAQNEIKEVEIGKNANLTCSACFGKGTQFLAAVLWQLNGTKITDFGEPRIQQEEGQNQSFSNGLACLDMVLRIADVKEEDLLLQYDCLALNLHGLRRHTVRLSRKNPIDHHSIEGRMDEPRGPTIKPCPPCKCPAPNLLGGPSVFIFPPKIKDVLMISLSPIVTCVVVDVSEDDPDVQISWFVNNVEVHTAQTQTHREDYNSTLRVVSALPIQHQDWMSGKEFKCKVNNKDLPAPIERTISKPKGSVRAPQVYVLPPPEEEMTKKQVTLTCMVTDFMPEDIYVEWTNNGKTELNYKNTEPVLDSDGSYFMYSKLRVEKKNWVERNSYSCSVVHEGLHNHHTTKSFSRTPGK
# Run Description: SPR (Biacore T200), hST2-ECD-mFc captured by anti-mouse IgG on CM5, antibody as analyte, 1:1 model
Measurement Label: Kd (pM)
Numbers only, in pM.

Below, 3 binders whose answers are already recorded.
| Binder | Kd [pM] |
| --- | --- |
| Chimeric 31C8 (antibody, human IgG2, kappa, V domains shown, also called xi31C8) VH: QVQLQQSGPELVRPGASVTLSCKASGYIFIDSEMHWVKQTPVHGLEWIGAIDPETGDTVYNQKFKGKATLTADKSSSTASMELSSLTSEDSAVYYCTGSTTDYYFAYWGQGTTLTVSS VL: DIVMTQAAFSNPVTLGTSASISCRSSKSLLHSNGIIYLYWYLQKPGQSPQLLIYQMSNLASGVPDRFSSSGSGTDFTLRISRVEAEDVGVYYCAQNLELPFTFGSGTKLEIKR | 129 |
| GSK3772847 (antibody STLM208 in CN104411333, prepared in-house) (antibody, human IgG2, kappa, V domains shown, Control anti-ST2 antibody) VH: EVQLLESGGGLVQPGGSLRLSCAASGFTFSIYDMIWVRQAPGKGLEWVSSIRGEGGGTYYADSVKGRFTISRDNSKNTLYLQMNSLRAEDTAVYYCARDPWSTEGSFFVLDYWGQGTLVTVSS VL: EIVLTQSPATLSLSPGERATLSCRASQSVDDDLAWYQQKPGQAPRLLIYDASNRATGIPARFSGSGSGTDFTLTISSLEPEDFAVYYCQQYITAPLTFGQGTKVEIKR | 95.8 |
| Humanized 31C8-1.2 (antibody, human IgG2, kappa, V domains shown, also called hz31C8-1.2; hz31C81-1.2) VH: QVQLVQSGAKVKKPGATVKISCKASGYIFIDSEMHWVQQAPGKGLEWMGAIDPETGDTVYAKKFKGRVTITADKSSSTAYMELSSLRSEDTAVYYCTGSTTDYYFAYWGQGTLVTVSS VL: DIQMTQSPSSLSASVGDRVTITCRSSKSLLHSNGIIYLYWYQQKPGKAPKLLIYQLSNLASGVPSRFSSSGSGTDFTLTISSLQPEDFATYYCAQNLELPFTFGQGTKVEIKR | 145 |

Looking for the measured Kd of Humanized 31C8-1.1 (antibody, human IgG2, kappa, V domains shown, also called hz31C8-1.1; hz31C81-1.1) VH: EVQLVQSGAEVKKPGATVKISCKASGYIFIDSEMHWVQQAPGKGLEWMGAIDPETGDTVYAEKFQGRVTITADKSSSTAYMELSSLRSEDTAVYYCTGSTTDYYFAYWGQGTLVTVSS VL: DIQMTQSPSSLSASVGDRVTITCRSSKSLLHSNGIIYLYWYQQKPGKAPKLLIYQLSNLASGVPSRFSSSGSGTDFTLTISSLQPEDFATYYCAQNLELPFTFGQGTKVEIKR , can you help?
83.6

Ref: patent US20230272086A1
